biological target: CaLsb1; assay: SPOT peptide array binding signal intensity (averaged, normalized) (arbitrary units (background-subtracted, floor 0; scale differs between SH3 domains)); higher = stronger binding of the SH3 domain to the peptide
Reported SPOT peptide array binding signal intensity is given for each of the following binders.
// return just the number, without any unit appended

BINDER | REPORTED RESULT
KKAPPPVVKPKPRNF | 2.5
VKPRQLFPIPLNKVD | 0.5

query: For the binder shown here, SHRLWLYAAPKRPKT , give the reported SPOT peptide array binding signal intensity.
result: 1.5

Data origin: the supplement of paper PMC4466140
